Recorded GI50 for the following compounds
- Test system: K562
- Assay Info: NCI tumour cell line growth inhibition, 48 h
Activity calls are given as the source filed them. No stated cut-off is given here; in the data, active = GI50 up to about 1.1 µM and inactive = higher.

Some entries whose results are on file:
Compound	GI50
[O-][S+]1SC(=S)C2C=CC=CC21 (centres undefined)	> 100 µM (inactive)
O=C(CCN1CCCC1)Nc1ccc2sc3ccccc3c(=O)c2n1	13.8 µM (inactive)
O=C(c1ccccc1)c1ccc(N2C(=O)/C(=C/c3cccc(Oc4ccccc4)c3)N=C2c2ccccc2)c(N2C(=O)/C(=C/c3cccc(Oc4ccccc4)c3)N=C2c2ccccc2)c1	9.42 µM (inactive)

Request the reported GI50 associated with COc1cc(N(CCC#N)CCC#N)ccc1/C=C1\SC(=S)NC1=O
> 100 µM (inactive)

Request the reported GI50 associated with CC(O)CCC(=O)c1ccoc1 (centres undefined)
6180 µM (inactive)

Request the reported GI50 associated with CCOC(=O)c1sc2nc1CSc1sc(=S)sc1SCc1nc(sc1C(=O)OCC)-c1nc(c(C(=O)OCC)s1)CSc1sc(=S)sc1SCc1nc-2sc1C(=O)OCC
> 10 µM (inactive)

Request the reported GI50 associated with CCOc1ccc(NC(=O)CC2C(=O)Nc3ccccc3S2(=O)=O)cc1 (centres undefined)
> 100 µM (inactive)

Request the reported GI50 associated with COC(=O)[C@@]12C3=NO[C@]1(C(=O)OC)C(O[Si](C)(C)C(C)(C)C)[C@@H](OC(C)=O)[C@@H](OC(C)=O)[C@@H]2[C@@H](OCc1ccccc1)CC3 (some centres undefined)
5.26 µM (inactive)

Request the reported GI50 associated with COc1cc(C2c3cc4c(cc3OC(NN)C2C)OCO4)cc(OC)c1OC (centres undefined)
0.333 µM (active)

* * *

- Test system: NCI-H460
- Assay Info: NCI tumour cell line growth inhibition, 48 h
Calls of active or inactive are those of the source. No stated cut-off is given here; in the data, active = GI50 up to about 1.1 µM and inactive = higher.
Attribute Measured: GI50

Compound Structure	Obs Value
CN(C)c1ccc(C2=C([O-])c3cc(-[n+]4ccccc4)ccc3C2=O)cc1	> 100 µM (inactive)

Request the reported GI50 associated with CNC(=O)Nc1ccccc1
> 100 µM (inactive)

Request the reported GI50 associated with OCCCCCCOc1ccc(-c2cc(-c3ccccn3)nc(-c3ccccn3)c2)cc1
0.104 µM (active)

Request the reported GI50 associated with C[C@]12CCC[C@H](O)[C@H]1C[C@H](CO)CC2
> 100 µM (inactive)

Request the reported GI50 associated with CC(C)(C)c1cc(OCc2nnc3sc(Cc4ccccc4)nn23)c(Cl)cc1OCc1nnc2sc(Cc3ccccc3)nn12
17.7 µM (inactive)

* * *

- Test system: KM-20L2
- Assay Info: NCI tumour cell line growth inhibition, 48 h
Calls of active or inactive are those of the source. Cut-off read from the data, not from the text of the source: active = GI50 up to about 1.1 µM and inactive = higher.
Recorded GI50 for the following compounds

Some entries whose results are on file:
Compound	Obs Value
N#C/C(=C\c1cc(O)cc(O)c1)C(N)=O	> 100 µM (inactive)
FC(F)(F)c1nc(-c2ccccc2)oc1Sc1nnc(Sc2oc(-c3ccccc3)nc2C(F)(F)F)s1	> 100 µM (inactive)
Cc1c(C(=O)CSc2nc3ccccc3c(=O)n2-c2ccccc2)c(=O)n(-c2ccccc2)n1C	> 100 µM (inactive)
COC1CCC(OC)C(C2(C3CC(OC)CCC3OC)OC(=O)c3ccccc32)C1 (stereo not given)	44.2 µM (inactive)

Pending compound:
Entry COc1ccc2oc3cccc(NCCN(C)C)c3c(=O)c2c1 , system KM-20L2: what GI50 was measured?
9.14 µM (inactive)
